Test system: alkane polyol dehydrogenase (purified enzyme)
Protocol details: Reduction activity measurement with purified alkane polyol dehydrogenase (NADH reduction at 340 nm)
Assay type: biochemical, Pichia ofunaensis
Assay conditions: substrate 100 mM, 0.2 mM NADH, pH 6.0, 25° C.
Readout: Reduction Activity (U/mg)

Compound	Unit of measurement	Measured number
CCC(C)=O	U/mg	0.40
CC(=O)C(C)O (centres unmarked) [3-Hydroxy-2-butanone]	U/mg	102
CCC(=O)CO [1-Hydroxy-2-butanone]	U/mg	5.84
CCCC(C)=O	U/mg	3.71
CC(=O)CO	U/mg	64.9

====

Test system: alkane polyol dehydrogenase (purified enzyme)
Type: biochemical, Pichia ofunaensis
Assay conditions: purified enzyme; Tables 2 and 4
Readout: oxidative (dehydrogenation) activity of the purified enzyme, in words

Molecule	Result
CCCCC(O)CO (centres unmarked)	well-oxidized
CCCCCCC(O)CO (centres unmarked)	well-oxidized
CCCCCC(C)O (centres unmarked)	no activity was observed
CCC(O)CO (centres unmarked)	well-oxidized
CCCCCCC(C)O (centres unmarked)	no activity was observed
CCCCCC(O)CO (centres unmarked)	well-oxidized
CCCC(O)CO (centres unmarked)	well-oxidized

====

Tested on: alkane polyol dehydrogenase (purified enzyme)
Format: biochemical, Pichia ofunaensis
Assay conditions: purified enzyme; substrate 100 mM; 2 mM NAD+; pH 8.0; 25° C.
So basically: is Oxidative Activity under 40 U/mg? Then Satisfied. Not under? Then Not satisfied.

Compound	Category label
C[C@@H](O)CO [(R)-1,2-Propanediol]	Not satisfied
C[C@H](O)[C@H](C)O [(2S,3S)-2,3-Butanediol]	Satisfied
CC(O)CCO (centres unmarked) [1,3-Butanediol]	Satisfied
CC(O)CO (centres unmarked) [1,2-Propanediol]	Not satisfied
CC(O)CC(C)O (centres unmarked) [2,4-Pentanediol]	Satisfied
CC(O)C(C)O (centres unmarked) [2,3-Butanediol]	Not satisfied
CCCC(O)CO (centres unmarked) [1,2-Pentanediol]	Not satisfied
CC(O)CCC(C)O (centres unmarked) [2,5-Hexanediol]	Satisfied
CC(C)O [Isopropanol]	Satisfied
CCC(O)CO (centres unmarked) [1,2-Butanediol]	Not satisfied
C[C@@H](O)[C@@H](C)O [(2R,3R)-2,3-Butanediol]	Not satisfied
CCCCC(O)CO (centres unmarked) [1,2-Hexanediol]	Satisfied
C[C@H](O)CO [(S)-1,2-Propanediol]	Satisfied
CC(=O)C(C)O (centres unmarked) [3-Hydroxy-2-butanone]	Satisfied
CC(O)C(C)O (stereo not drawn) [meso-2,3-Butanediol]	Not satisfied
OCC[C@@H](O)CO [(R)-1,2,4-Butanetriol]	Satisfied

Data origin: patent US7771977B2
